target: Protein kinase C alpha type (Homo sapiens, UniProt P17252); assay: Displacement of [3H-20]-phorbol 12,13-dibutyrate(PDBU) from recombinant Protein kinase C alpha
Simple rule here: Ki less than 2000 nM is condition met, otherwise condition not met.

[
  {
    "molecule": "CCCCCCCC/C=C\\CCCCCCCCOC(=O)/C=C1/COC(CO)(COC(C)=O)C1 (stereo not drawn)",
    "class": "condition met"
  },
  {
    "molecule": "CCCCCCCC/C=C\\CCCCCCCCOC(=O)/C=C1\\COC(CO)(COC(C)=O)C1 (stereo not drawn)",
    "class": "condition met"
  },
  {
    "molecule": "CCCCCCCCCCCCCCOC(=O)C[C@@H]1CC[C@@](CO)(COC(=O)CCCCC)O1",
    "class": "condition not met"
  },
  {
    "molecule": "CCCCCCCCCCCCCC(=O)OC[C@]1(CO)CC[C@@H](CC(=O)OC)O1",
    "class": "condition not met"
  },
  {
    "molecule": "CCCCCCCCCCCCCC(=O)OC[C@]1(CO)CC[C@H](CC(=O)OC)O1",
    "class": "condition not met"
  },
  {
    "molecule": "CCCCCCCCCCCCCC(=O)OCC1(CO)C/C(=C/C(=O)OC)CO1 (stereo not drawn)",
    "class": "condition met"
  },
  {
    "molecule": "CCCCCCCCCCCCCCOC(=O)C[C@H]1CC[C@@](CO)(COC(=O)CCCCC)O1",
    "class": "condition not met"
  },
  {
    "molecule": "CCCCCCCCCCCCCC(=O)OCC1(CO)C/C(=C\\C(=O)OC)CO1 (stereo not drawn)",
    "class": "condition met"
  }
]
